Source: paper PMC3404088

Target Under Test: T1, Aβ1–42 fibrils (UniProt P05067 672-713)
T1 construct: amyloid-β peptide Aβ1–42, cut from the amyloid precursor protein (APP), in fibrillar form; Aggregated (fibrillar) state of the same peptide as m15; also called fibrillar Aß1–42; Aβ fibrils; source: bought: JPT Biotech or Bachem AG (HPLC purified peptide); fibrils formed at 37°C (7 days in PBS pH 7.4 for SPR; five days in 50 mM Tris-HCl pH 7.4 for ELISA)
T1 sequence (P05067 672-713): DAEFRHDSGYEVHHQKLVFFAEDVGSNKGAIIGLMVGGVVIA
Experiment: SPR; Biacore T100, single-cycle mode, 25°C; Aβ1–42 fibrils immobilised on a CM5 chip by amine coupling; PBS pH 7.4, 30 µl/min; 100 to 62500 nM in fivefold steps, 60 s each; heterogeneous ligand model
Test Conditions: both partners purified
Square brackets hold non-standard residues; d marks the D form. Primed or numbered codes have the meaning given here. Ends that are not written are not given here. FITC′ = fluorescein isothiocyanate (ϕ)
binders and their reported k on1 (heterogeneous ligand model, site 1)
Measured Metric: k on1 (heterogeneous ligand model, site 1)

Binder: [dQ][dS][dH][dY][dR][dH][dI][dS][dP][dA][dQ][dK][dK](FITC′) (D-enantiomeric derivative of ACI-80 (D1): V12K, added C-terminal lysine; also called D1-V12K-Kϕ; source: synthetic peptide (JPT Peptide Technologies GmbH, Berlin)) [ACI-87-Kϕ]
Recorded Number: 206
--
Binder: [dS][dH][dY][dR][dH][dI][dS][dP][dA][dQ][dK][dK](FITC′) (D-enantiomeric derivative of ACI-80 (D1): N-terminal glutamine deleted (Q1X), V12K, added C-terminal lysine; also called D1-Q1X-V12K-Kϕ; source: synthetic peptide (JPT Peptide Technologies GmbH, Berlin)) [ACI-88-Kϕ]
Recorded Number: 17100
--
Binder: [dP][dS][dH][dY][dR][dH][dI][dS][dP][dA][dQ][dK][dK](FITC′) (D-enantiomeric derivative of ACI-80 (D1): Q1P, V12K, added C-terminal lysine; also called D1-Q1P-V12K-Kϕ; source: synthetic peptide (JPT Peptide Technologies GmbH, Berlin)) [ACI-89-Kϕ]
Recorded Number: 20300
--
Binder: [dQ][dS][dH][dY][dR][dH][dI][dS][dP][dA][dQ][dV][dK](FITC′) (D-enantiomeric peptide ACI-80 (D1), selected by mirror image phage display on aggregated Aβ1–42, with an added C-terminal lysine; also called D1-Kϕ; source: synthetic peptide (JPT Peptide Technologies GmbH, Berlin)) [ACI-80-Kϕ]
Recorded Number: 469
